Kindly state IC50 for each of the entries shown.
- Tested on: TGF-β signaling (TGF-β pSMAD, MPC-11)
- Measurement Protocol: AlphaScreen SureFire SMAD3 (p-Ser423/425) assay, inhibition of TGF-β signaling
- Assay type: cell-based
- Test Conditions: Mus musculus, p-SMAD-3 (Ser423/425) in cell lysate after TGF-β stimulation
Response body: numeric value in nM, unit text excluded.

In: Consider the compound shown here: Fc1cc(F)c(-c2nn3c(c2-c2ccc4nccn4c2)CCC3)cc1Cl What is its recorded IC50?
Out: 81.7

In: Please do the same for Fc1ccc(-c2nn3c(c2-c2ccc4cn[nH]c4c2)OCC3)cc1 as well.
Out: 881

In: Same read-out for Fc1ccc(-c2nn3c(c2-c2ccc4[nH]ncc4c2)CCC3)c(F)c1Cl ?
Out: 1020

In: Also Fc1ccc(-c2nn3c(c2-c2ccc4nccnc4c2)CCC3)cc1Cl , if possible.
Out: 687

In: Now give it for Fc1ccc(-c2nn3c(c2-c2ccc4ncsc4c2)CCC3)c(F)c1F too.
Out: 946

* * *

- System: TGF-β signaling (TGF-β pSMAD, MPC-11)
- Measurement Protocol: AlphaScreen SureFire SMAD3 (p-Ser423/425) assay, inhibition of TGF-β signaling
- Format: cell-based
- Test Conditions: Mus musculus, p-SMAD-3 (Ser423/425) in cell lysate after TGF-β stimulation
Entries get a class label from measured IC50. See ranges: low band (below 200 nM), middle band (200 nM to below 800 nM), high band (800 nM or more)

In: Kindly state the category for this compound: COc1cnc2ccc(-c3c(-c4cc(F)ccc4F)nn4c3CCC4)cc2n1
Out: high band

In: Another compound: Fc1ccc(Cl)cc1-c1nn2c(c1-c1ccc3ncccc3c1)CCC2
Out: low band

In: Next entry: Fc1ccc(-c2nn3c(c2-c2ccc4[nH]ncc4c2)CCC3)cc1OC(F)(F)F
Out: high band

In: Here is the next compound: COc1c(F)ccc(-c2nn3c(c2-c2ccc4ncnn4c2)CCC3)c1F
Out: high band

In: What about Fc1ccc(-c2nn3c(c2-c2ccc4ncccc4c2)OCC3)cc1 ?
Out: high band

In: Please do the same for Fc1ccc(-c2nn3c(c2-c2ccc4nccn4c2)CCC3)c(F)c1 as well.
Out: middle band

In: // same read-out, input: Fc1ccc(F)c(-c2nn3c(c2-c2ccc4nccnc4c2)CCC3)c1
Out: middle band

In: Field entry: FC(F)(F)c1cccc(-c2nn3c(c2-c2ccc4cn[nH]c4c2)CCC3)c1
Out: middle band

In: // same read-out, input: Cc1cccc(-c2nn3c(c2-c2ccc4ncn(C)c4c2)OCC3)c1
Out: low band

In: Now the same for Fc1ccc(-c2nn3c(c2-c2ccc4[nH]ncc4c2)CCC3)cc1
Out: middle band

In: How about this compound: Cc1cc(-c2nn3c(c2-c2ccc4ncnn4c2)CCC3)c(F)cc1F
Out: low band

In: Next: Fc1ccc(-c2nn3c(c2-c2ccc4ncnn4c2)CCC3)cc1Cl
Out: middle band

In: Same question for Cc1cccc(-c2nn3c(c2-c2ccc4c(cnn4C)c2)CCC3)c1 please.
Out: high band

In: Again, but for Fc1ccc(F)c(-c2nn3c(c2-c2ccc4cn[nH]c4c2)CCC3)c1
Out: high band

In: Try the compound Cc1cccc(-c2nn3c(c2-c2ccc4nccn4c2)OCC3)c1
Out: low band

In: How about this compound: Fc1ccc(-c2nn3c(c2-c2ccc4ncnn4c2)CCC3)c(F)c1
Out: middle band

In: Next compound up: COc1ccc(F)c(-c2nn3c(c2-c2ccc4nccnc4c2)CCC3)c1
Out: low band

In: Also need Cc1cccc(-c2nn3c(c2-c2ccc4nccn4c2)OCCC3)c1 , thanks.
Out: middle band

In: Consider next the compound Cc1cc(-c2nn3c(c2-c2ccc4ncnn4c2)CCC3)ccc1F in the same way.
Out: low band

In: Try this compound next: Fc1ccc(-c2nn3c(c2-c2ccc4ncsc4c2)CCC3)c(F)c1
Out: low band

In: Queued: FC(F)(F)c1cccc(-c2nn3c(c2-c2ccc4[nH]ncc4c2)OCC3)c1
Out: middle band

In: Another compound to look at: Fc1c(Cl)cccc1-c1nn2c(c1-c1ccc3[nH]ncc3c1)CCC2
Out: high band

In: Same for COc1cccc(-c2nn3c(c2-c2ccc4ncccc4c2)CCC3)c1
Out: high band

In: Consider next the compound Fc1cccc(-c2nn3c(c2-c2ccc4ncsc4c2)CCC3)c1 in the same way.
Out: high band

In: Also check Cc1cc(-c2nn3c(c2-c2ccc4[nH]ncc4c2)CCC3)ccc1F
Out: low band

In: Please give the result for Fc1ccc(-c2nn3c(c2-c2ccc4[nH]ncc4c2)CCC3)cc1Cl too.
Out: middle band

In: Request: COc1cccc(-c2nn3c(c2-c2ccc4ncn(C)c4c2)CCC3)c1
Out: middle band

In: Record: Clc1cccc(-c2nn3c(c2-c2ccc4nccn4c2)CCC3)c1
Out: low band

In: Proceed to FC(F)(F)Oc1cccc(-c2nn3c(c2-c2ccc4nccnc4c2)CCC3)c1
Out: middle band

In: Can you handle FC(F)(F)Oc1cccc(-c2nn3c(c2-c2ccc4ncnn4c2)CCC3)c1 next?
Out: low band

In: Fc1ccc(-c2nn3c(c2-c2ccc4cn[nH]c4c2)CCC3)c(F)c1Cl ?
Out: high band

In: And the next one, FC(F)(F)Oc1cccc(-c2nn3c(c2-c2ccc4[nH]ncc4c2)CCC3)c1 ?
Out: low band

In: Query COc1cccc(-c2nn3c(c2-c2ccc4[nH]ncc4c2)CCC3)c1 next
Out: high band
